Cited source: patent US20210403579A1

Biological target: T1, Human ST2 (human, UniProt Q01638 19-328, limits assumed)
T1 construct: also called human ST2 protein; Interleukin 1 receptor-like 1
T1 sequence (looked up): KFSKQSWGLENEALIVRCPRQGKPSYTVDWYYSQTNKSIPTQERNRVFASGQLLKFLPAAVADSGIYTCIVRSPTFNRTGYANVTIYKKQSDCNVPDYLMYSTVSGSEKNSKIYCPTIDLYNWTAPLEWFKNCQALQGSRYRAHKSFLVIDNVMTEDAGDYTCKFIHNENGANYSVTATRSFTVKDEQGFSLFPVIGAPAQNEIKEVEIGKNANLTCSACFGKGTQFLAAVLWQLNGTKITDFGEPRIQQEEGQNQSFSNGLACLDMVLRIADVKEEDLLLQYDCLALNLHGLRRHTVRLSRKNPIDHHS
Test: SPR (Carterra), antibody immobilized, ST2 analyte
PROPERTY_LABEL: kon (M⁻¹ s⁻¹)
The response must be a number in M⁻¹ s⁻¹ with no trailing unit.

(Q) Given the binder Human ST2 IgG1 Antibody 46 (antibody, V domains shown, IgG1; also called ST2 Antibody 46) VH: EVQLLESGGGLVKPGGSLRLSCAASGFTFSSYWMSWVRQAPGKGLEWVSSISGTSNYMYYADSVKGRFTISRDDSKNTLYLQMNSLKTEDTAVYYCARDRGFLGYFDYWGQGTLVTVSS VL: DIQMTQSPSSLSASVGDRVTITCQASQYISNYLNWYQQKPGKAPKLLIYGASTLQSGVPSRFSGSGSGTDFTLTISSLQPEDFATYYCQQSQSTPLTFGPGTKVDIKR , what is its reported kon?
(A) 120000

(Q) Given the binder Human ST2 IgG1 Antibody 36 (antibody, V domains shown, IgG1; also called ST2 Antibody 36) VH: QVQLVQSGAEVKKPGASVKVSCKASGYTFTSYGISWVRQAPGQGLEWMGWIDPNSGGTNYAQKFQGRVTMTRDTSTSTVYMELSSLRSEDTAVYYCARDDWFSGDLDYWGQGTLVTVSS VL: DIQMTQSPSSLSASVGDRVTITCRASQGIDSWLAWYQQKPGKAPKLLIYAASKLQGGVPSRFSGSGSGTDFTLTISSLQPEDFATYYCQQGYSTPITFGQGTKVDIKR , what is its reported kon?
(A) 510000

(Q) Given the binder Human ST2 IgG1 Antibody 62 (antibody, V domains shown, IgG1; also called ST2 Antibody 62) VH: QVQLVQSGAEVKKPGSSVKVSCKASGYIFTNYWIQWVRQAPGQGLEWMGGIIPIFETANYAQKFQGRVTITADDSTSTAYMELSSLRSEDTAVYYCARLGDRGDFDYWGQGTLVTVSS VL: DIVMTQSPDSLAVSLGERATINCKSSQSISHSPNTRDYLAWYQQKPGQPPKLLIYWASTRESGVPDRFSGSGSGTDFTLTISSLQAEDVAVYYCQQYYRFPLAFGQSTKVEIKR , what is its reported kon?
(A) 960000

(Q) Given the binder Human ST2 IgG1 Antibody 69 (antibody, V domains shown, IgG1; also called ST2 Antibody 69) VH: QVQLVQSGAEVKKPGASVKVSCKASGYTFSDYYVHWVRQAPGQGLEWMGWISAYNGNTNYAQKLQGRVTMTRDTSTSTVYMELSSLRSEDTAVYYCARGSLDIWFREPGVYMDVWGKGTTVTVSS VL: DIVMTQSPLSLPVTPGEPASISCRSSQSLLHSNGYNYLDWYLQKPGQSPQLLIYAASSLQSGVPDRFSGSGSGTDFTLKISRVEAEDVGVYYCMQALQTPITFGQGTKVEIKR , what is its reported kon?
(A) 410000

(Q) Given the binder Human ST2 IgG1 Antibody 56 (antibody, V domains shown, IgG1; also called ST2 Antibody 56) VH: EVQLLESGGGLVKPGGSLRLSCAASGFTFSSYAMSWVRQAPGKGLEWVSSISSDSYYKYHADSVKGRFTISRDDSKNTLYLQMNSLKTEDTAVYYCAKGADYDFWSGYLDYWGQGTLVTVSS VL: DIQMTQSPSSLSASVGDRVTITCRASQGISSYLAWYQQKPGKAPKLLIYRASTLQSGVPSRFSGSGSGTDFTLTISSLQPEDFATYYCQQSYNTPWTFGQSTKVEIKR , what is its reported kon?
(A) 150000
